Tested on: Trichophyton mentagr.
experiment: Antimycotic in vitro activity, serial dilution test (MIC)
Type: cell-based, Trichophyton mentagrophytes
measurement setup: Sabouraud's test medium, 28-37° C., 96 hours, read-out: MIC values in μg/ml of nutrient medium
assay metric: MIC

See these solved cases before continuing.
{"compound": "CC(C)(C#N)C(O)(COc1ccc(-c2ccccc2)cc1)Cn1cncn1 (stereo not shown) [Compound 7]", "test target": "Trichophyton mentagr.", "MIC": "< 1 µg/mL"}
{"compound": "CC(C)(C#N)C(O)(CCc1ccc(Cl)cc1)Cn1cncn1 (stereo not shown) [Compound 2]", "test target": "Trichophyton mentagr.", "MIC": "< 1 µg/mL"}
{"compound": "CC(C)(C#N)C(O)(CSc1ccc(Cl)cc1)Cn1cncn1 (stereo not shown) [Compound 5]", "test target": "Trichophyton mentagr.", "MIC": "8 µg/mL"}

Shifting focus to the compound that follows.
compound CC(C)(C#N)C(O)(CSc1ccc(Br)cc1)Cn1cncn1 (stereo not shown) [Compound 4] , MIC observed: < 1 µg/mL

Entry source: patent US4904682A
